Data provenance: patent US20130230533A1

- target or test system: T1, Dimeric human CD48-mFc (human)
- T1 chain: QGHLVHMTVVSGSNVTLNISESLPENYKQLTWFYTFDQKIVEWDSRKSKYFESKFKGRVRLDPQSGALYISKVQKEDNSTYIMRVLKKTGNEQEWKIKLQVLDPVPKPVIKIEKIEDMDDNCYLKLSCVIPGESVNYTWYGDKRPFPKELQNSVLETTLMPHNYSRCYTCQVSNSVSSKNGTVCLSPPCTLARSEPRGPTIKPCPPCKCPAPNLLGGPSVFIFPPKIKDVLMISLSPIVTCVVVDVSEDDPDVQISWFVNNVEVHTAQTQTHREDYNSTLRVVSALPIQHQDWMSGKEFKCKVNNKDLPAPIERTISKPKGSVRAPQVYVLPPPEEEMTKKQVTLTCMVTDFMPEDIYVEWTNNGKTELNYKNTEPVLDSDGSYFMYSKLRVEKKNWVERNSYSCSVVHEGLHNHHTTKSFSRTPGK
- measurement notes: SPR (Biacore T100), 25 C, antibody captured by anti-Fc, dimeric CD48-mFc in solution
measured parameter: kon (M⁻¹ s⁻¹)
Give bare numbers, in M⁻¹ s⁻¹.

{"binder": "H4H1707N (antibody, human IgG4, V domains shown, Human IgG4 Fc (prefix H4H)) VH: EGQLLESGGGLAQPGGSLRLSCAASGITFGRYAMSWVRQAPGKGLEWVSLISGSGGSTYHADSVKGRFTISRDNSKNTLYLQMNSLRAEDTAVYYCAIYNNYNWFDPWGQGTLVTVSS VL: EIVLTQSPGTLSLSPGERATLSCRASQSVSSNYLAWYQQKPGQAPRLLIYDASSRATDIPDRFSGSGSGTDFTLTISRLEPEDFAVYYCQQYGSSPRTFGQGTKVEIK", "kon (M⁻¹ s⁻¹)": 385000}
{"binder": "H2M1811N (antibody, mouse IgG2, V domains shown, Human variable domains, mouse IgG2 Fc (prefix H2M)) VH: QVQLVQSGAEAREPGASVRVSCKASGYTFTDYFIHWVRQAPGQGLEWMGWINPNSGATNFAQKFQGRVTMTRDTSLITAYMDLSRLKSDDAAVFYCARDVDGSGWYLDFWGQGTLVTVSS VL: EIVLTQSPATLSLSPGERATLSCRASQSVSIYLAWYQQKPGQAPRLLIYDASNRATGIPARFSGSGSGTDFTLTISRLEPEDFAVYYCQQRSDWPPSITFGQGTRLEIK", "kon (M⁻¹ s⁻¹)": 144000}
{"binder": "H4H1772P (antibody, human IgG4, V domains shown, Human IgG4 Fc (prefix H4H)) VH: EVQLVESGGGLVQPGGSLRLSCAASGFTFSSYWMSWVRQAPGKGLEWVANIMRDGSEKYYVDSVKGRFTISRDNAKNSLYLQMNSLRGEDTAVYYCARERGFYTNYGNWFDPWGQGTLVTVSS VL: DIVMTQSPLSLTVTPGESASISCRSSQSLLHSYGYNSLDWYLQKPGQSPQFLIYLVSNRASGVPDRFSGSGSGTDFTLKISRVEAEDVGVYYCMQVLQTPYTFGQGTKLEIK", "kon (M⁻¹ s⁻¹)": 376000}

Could you tell me kon for each of these binders? They are listed below.
1. H2M1709N (antibody, mouse IgG2, V domains shown, Human variable domains, mouse IgG2 Fc (prefix H2M)) VH: QVQLVQSGAEVKKPGASVKVSCKVSGYTLTELSIHWVRQAPGKGLEWMGGFDPEDGETIYAQKFQGRVNMTEDTSTDTAYMELSSLRSDDTTVYFCASLLPYFDYWGQGTLVTVSS VL: EIVLTQSPGTLSLSPGERATLSCRASQSVSSSYLAWYQQKPGQAPRLLIYGASSRATGIPDRFSGSGSGTDFTLSISRLEPEDFAVYFCQQYGSSMYTFGQGTKLEIK
2. H2M1710N (antibody, mouse IgG2, V domains shown, Human variable domains, mouse IgG2 Fc (prefix H2M)) VH: QVQLVQSGADMKKPGASVRVSCKASGYTFTDYFIHWVRQAPGQGPEWMGWINPDSGATNYAQQFQGRVTMTRDTSISATYMEMSRLRSDDTAVFYCARDKDGSGWYLDDWGQGTLVTVSS VL: EIVLTQSPATLSLSPGERATLSCRASQSVNIYLAWYQQKPGQAPRLLIYDASNRASGIPARFSGSGSGTDFTLTISSLEPEDFAVYYCQQRSNWPPSITFGQGTRLEIK
3. H4H1771P (antibody, human IgG4, V domains shown, Human IgG4 Fc (prefix H4H)) VH: QVQLVQSGTEVKKPGASVKVSCKVSGYTLIDLSIHWVRQAPGEGLEWMGGFDPEESETIYAQKFQGRVTMTEDTSTDTAYMELSSLRSEDTAVYYCVTEPIFGILIHESWGQGTLVTVSS VL: DIVMTQTPLSSPVTLGQPASISCRSSHSPVHSNGHTYLSWLQQRPGQPPRILIYKISRRFSGVPDRFSGSGAGTDFTLKISRVETEDVGIYYCMQASQFPWTFGQGTKVEIK

RESULT:
928000
112000
2.07e+06
